# Test system: OVCAR-4 ovarian
# Assay Notes: NCI tumour cell line growth inhibition, 48 h
Recorded TGI for the following compounds

// solved cases for TGI follow
# Compound, Test Target, Reported Value
records = [
    ("Oc1[nH]c2ccccc2c1N=NC(=S)N1CCCC1", "OVCAR-4 ovarian", "32.2 µM"),
    ("COc1cccc(Nc2nccc(Nc3ccc4[nH]ncc4c3)n2)c1", "OVCAR-4 ovarian", "4.03 µM"),
    ("COC(=O)/C(=C\\C(=O)c1ccc(Br)cc1)NN=C(c1ccccc1)c1ccccc1", "OVCAR-4 ovarian", "> 10 µM"),
    ("C[N+]1=c2c3cccc4cccc(c(=O)n2CCC1)c43", "OVCAR-4 ovarian", "42.9 µM"),
    ("CCOc1cc(NC(C)=O)ccc1C(=O)NN1C(=O)CSC1c1ccc(O)c(OC)c1 (centres undefined)", "OVCAR-4 ovarian", "> 100 µM"),
]

Exercise: # query: TGI of entry Nc1ccc(C(=O)NN2C(=O)C(Cl)C2c2cccc([N+](=O)[O-])c2)cc1 (centres undefined)
Key: 33.4 µM

Exercise: Any idea what its TGI is? The compound is CCc1ccccc1-n1c(N)c(C#N)c(-c2ccc(OC)c(OC)c2)c(C#N)c1=O
Key: 63 µM

Exercise: Data request, read-out TGI, for c1cnc2c(c1)Nc1cnncc1S2
Key: > 100 µM

Exercise: Report TGI for COC(=O)Nc1nc2ccc(Sc3ccccc3)cc2[nH]1 please.
Key: 6.34 µM

Exercise: Record request: TGI value, item Cc1ccccc1NC(=O)C(=O)Cc1cnc2ccccc2n1
Key: > 100 µM

Exercise: For the compound shown here, CC1(C)O[C@@H](CP(c2ccccc2)c2ccccc2)[C@H](CP(c2ccccc2)c2ccccc2)O1 , give the reported TGI.
Key: > 100 µM
